- TARGET_SYSTEM: Ionotropic glutamate receptor NMDA 1/2D (Rattus norvegicus) (UniProt P35439+Q62645)
- ASSAY_METHOD_TEXT: Partial agonist activity at recombinant rat GluN1/GluN2D NMDA receptor expressed in xenopus laevis oocytes by measuring maximum response by two-electrode voltage-clamp method relative to glycine
- Assay type: cell-based
RESULT_TYPE: Rmax (%)

INSERT INTO assay_data (item_smiles, recorded_value) VALUES
  ('Cc1cc(C(=O)NC[C@@H](N)C(=O)O)sc1-c1ccccc1Br', 30),
  ('N[C@H](CNC(=O)c1cc(Br)c(-c2ccccc2Br)s1)C(=O)O', 30),
  ('COc1ccc(F)cc1-c1ccc(C(=O)NC[C@@H](N)C(=O)O)s1', 23),
  ('CCc1ccccc1-c1ccc(C(=O)NC[C@@H](N)C(=O)O)s1', 32),
  ('COc1ccccc1-c1ccc(C(=O)NC[C@@H](N)C(=O)O)s1', 24),
  ('N[C@H](CNC(=O)c1ccc(-c2cccc3ccccc23)s1)C(=O)O', 34),
  ('N[C@H](CNC(=O)c1ccc(-c2ccccc2C(F)(F)F)s1)C(=O)O', 24),
  ('COc1cccc(F)c1-c1ccc(C(=O)NC[C@@H](N)C(=O)O)s1', 29),
  ('N[C@H](CNC(=O)c1ccc(-c2ccccc2Br)s1)C(=O)O', 28);

---

- TARGET_SYSTEM: Glutamate NMDA receptor; Grin1/Grin2b (Rattus norvegicus, UniProt P35439+Q00960)
- Sequence (Q00960 whole entry, other chains not shown): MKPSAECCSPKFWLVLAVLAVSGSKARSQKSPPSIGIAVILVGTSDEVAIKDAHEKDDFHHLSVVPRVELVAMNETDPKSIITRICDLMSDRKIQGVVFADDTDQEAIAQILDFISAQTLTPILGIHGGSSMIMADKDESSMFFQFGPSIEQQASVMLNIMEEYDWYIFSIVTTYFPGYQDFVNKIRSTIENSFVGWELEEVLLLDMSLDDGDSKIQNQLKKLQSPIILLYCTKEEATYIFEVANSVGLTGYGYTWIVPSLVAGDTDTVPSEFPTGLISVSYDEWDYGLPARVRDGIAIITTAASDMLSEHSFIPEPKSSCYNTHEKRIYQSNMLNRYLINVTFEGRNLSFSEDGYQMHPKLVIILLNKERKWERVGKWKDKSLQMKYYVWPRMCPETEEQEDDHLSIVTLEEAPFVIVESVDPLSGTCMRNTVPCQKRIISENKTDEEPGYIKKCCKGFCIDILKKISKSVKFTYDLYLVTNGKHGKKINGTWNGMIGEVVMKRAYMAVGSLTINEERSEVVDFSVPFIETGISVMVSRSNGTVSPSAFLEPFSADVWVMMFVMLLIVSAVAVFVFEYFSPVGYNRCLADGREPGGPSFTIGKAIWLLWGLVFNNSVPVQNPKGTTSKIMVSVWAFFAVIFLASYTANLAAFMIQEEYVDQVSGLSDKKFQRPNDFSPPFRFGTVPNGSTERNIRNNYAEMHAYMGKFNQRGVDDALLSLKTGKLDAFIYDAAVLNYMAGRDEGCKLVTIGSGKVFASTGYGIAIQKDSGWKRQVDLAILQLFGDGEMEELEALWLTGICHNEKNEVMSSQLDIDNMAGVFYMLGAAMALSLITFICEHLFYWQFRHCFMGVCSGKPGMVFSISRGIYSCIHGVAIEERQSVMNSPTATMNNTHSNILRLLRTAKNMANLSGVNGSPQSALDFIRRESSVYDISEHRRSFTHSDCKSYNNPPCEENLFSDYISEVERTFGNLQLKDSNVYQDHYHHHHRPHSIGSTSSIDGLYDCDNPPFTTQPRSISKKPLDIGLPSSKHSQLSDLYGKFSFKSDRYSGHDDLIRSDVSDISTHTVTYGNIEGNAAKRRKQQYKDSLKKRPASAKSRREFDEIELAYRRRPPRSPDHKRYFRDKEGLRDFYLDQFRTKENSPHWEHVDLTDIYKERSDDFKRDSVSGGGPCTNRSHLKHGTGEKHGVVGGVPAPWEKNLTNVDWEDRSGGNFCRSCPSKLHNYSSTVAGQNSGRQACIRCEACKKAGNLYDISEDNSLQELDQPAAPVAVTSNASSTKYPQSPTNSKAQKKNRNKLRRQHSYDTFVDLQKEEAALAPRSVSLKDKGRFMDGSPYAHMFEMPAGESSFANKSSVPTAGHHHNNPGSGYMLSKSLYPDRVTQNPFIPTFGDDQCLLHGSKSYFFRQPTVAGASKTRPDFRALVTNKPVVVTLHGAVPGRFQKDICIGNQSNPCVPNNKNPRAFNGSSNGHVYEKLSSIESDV
- ASSAY_METHOD_TEXT: Inhibition of recombinant rat GluN1/GluN2B NMDA receptor expressed in xenopus laevis oocytes in presence of glycine and L-glutamate by two-electrode voltage-clamp method
pIC50: −log10 of the molar value.
RESULT_TYPE: pIC50

INSERT INTO results (item_smiles, recorded_value) VALUES
  ('N[C@H](CNC(=O)c1ccc(-c2ccccc2)s1)C(=O)O', 5.68),
  ('CCc1ccccc1-c1ccc(C(=O)NC[C@@H](N)C(=O)O)o1', 6.82);

---

- TARGET_SYSTEM: Glutamate NMDA receptor; Grin1/Grin2a (Rattus norvegicus, UniProt P35439+Q00959)
- Sequence (Q00959 whole entry, other chains not shown): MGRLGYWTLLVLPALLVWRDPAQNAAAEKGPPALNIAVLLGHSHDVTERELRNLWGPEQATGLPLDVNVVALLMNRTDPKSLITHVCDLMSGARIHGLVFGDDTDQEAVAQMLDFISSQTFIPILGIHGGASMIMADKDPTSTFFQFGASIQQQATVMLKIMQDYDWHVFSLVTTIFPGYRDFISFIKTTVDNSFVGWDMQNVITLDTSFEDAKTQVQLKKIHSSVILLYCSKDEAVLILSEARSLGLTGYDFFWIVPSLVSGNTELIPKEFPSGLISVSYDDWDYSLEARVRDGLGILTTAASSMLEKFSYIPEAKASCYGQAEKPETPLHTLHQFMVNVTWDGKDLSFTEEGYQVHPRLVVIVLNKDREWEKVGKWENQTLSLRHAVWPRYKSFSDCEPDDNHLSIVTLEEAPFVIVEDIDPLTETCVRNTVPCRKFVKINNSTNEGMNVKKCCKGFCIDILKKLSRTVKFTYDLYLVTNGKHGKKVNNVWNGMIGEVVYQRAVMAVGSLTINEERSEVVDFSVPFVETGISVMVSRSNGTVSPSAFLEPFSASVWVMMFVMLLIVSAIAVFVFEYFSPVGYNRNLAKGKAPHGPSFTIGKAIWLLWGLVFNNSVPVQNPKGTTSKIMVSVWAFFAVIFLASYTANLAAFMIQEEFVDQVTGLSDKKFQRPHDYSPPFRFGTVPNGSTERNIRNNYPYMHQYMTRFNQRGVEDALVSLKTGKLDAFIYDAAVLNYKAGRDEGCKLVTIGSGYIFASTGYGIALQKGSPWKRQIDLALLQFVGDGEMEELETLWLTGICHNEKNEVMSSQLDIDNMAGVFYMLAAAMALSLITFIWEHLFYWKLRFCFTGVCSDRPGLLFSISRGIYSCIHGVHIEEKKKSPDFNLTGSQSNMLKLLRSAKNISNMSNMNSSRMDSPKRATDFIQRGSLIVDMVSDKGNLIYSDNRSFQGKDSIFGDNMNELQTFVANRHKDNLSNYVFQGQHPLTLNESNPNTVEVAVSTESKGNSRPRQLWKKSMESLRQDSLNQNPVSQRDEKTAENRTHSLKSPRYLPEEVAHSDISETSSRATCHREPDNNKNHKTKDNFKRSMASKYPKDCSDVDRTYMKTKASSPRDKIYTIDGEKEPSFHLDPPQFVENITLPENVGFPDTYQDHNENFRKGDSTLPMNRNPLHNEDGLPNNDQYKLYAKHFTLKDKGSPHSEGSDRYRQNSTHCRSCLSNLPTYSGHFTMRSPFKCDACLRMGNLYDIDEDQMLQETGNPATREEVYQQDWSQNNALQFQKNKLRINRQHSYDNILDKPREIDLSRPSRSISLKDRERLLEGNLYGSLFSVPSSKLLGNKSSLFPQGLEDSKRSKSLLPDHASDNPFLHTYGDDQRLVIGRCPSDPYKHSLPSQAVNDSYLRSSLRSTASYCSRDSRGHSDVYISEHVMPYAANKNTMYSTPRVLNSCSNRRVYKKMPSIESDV
- ASSAY_METHOD_TEXT: Inhibition of recombinant rat GluN1/GluN2A NMDA receptor expressed in xenopus laevis oocytes in presence of glycine and L-glutamate by two-electrode voltage-clamp method
RESULT_TYPE: IC50 (nM)

INSERT INTO results (item_smiles, target_system, result_type, units_symbol, recorded_value) VALUES
  ('N[C@H](CNC(=O)c1ccc(-c2ccccc2)s1)C(=O)O', 'Glutamate NMDA receptor; Grin1/Grin2a (Rattus norvegicus, UniProt P35439+Q00959)', 'IC50', 'nM', 1900),
  ('CCc1ccccc1-c1ccc(C(=O)NC[C@@H](N)C(=O)O)o1', 'Glutamate NMDA receptor; Grin1/Grin2a (Rattus norvegicus, UniProt P35439+Q00959)', 'IC50', 'nM', 540);

---

- TARGET_SYSTEM: Ionotropic glutamate receptor NMDA 1/2D (Rattus norvegicus, UniProt P35439+Q62645)
- ASSAY_METHOD_TEXT: Inhibition of recombinant rat GluN1/GluN2D NMDA receptor expressed in xenopus laevis oocytes in presence of glycine and L-glutamate by two-electrode voltage-clamp method
pIC50: −log10 of the molar value.
RESULT_TYPE: pIC50

INSERT INTO measurements (item_smiles, result_type, recorded_value) VALUES
  ('CCc1ccccc1-c1ccc(C(=O)NC[C@@H](N)C(=O)O)o1', 'pIC50', 5.89);
